B1: COX4I1 (parent)
chain: VAHVKHLSASQKALKEKEKASWSS

- Variants of: B1
- ASSAY_DETAILS: protein stability index of a GFP-peptide fusion (GPS, HEK-293T) (PSI 1-6); higher = more stable;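 further: lentivirally expressed fusions sorted by FACS into six bins by GFP to DsRed ratio, PSI derived from sequencing read proportions per bin multiplied by bin number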
- SETTINGS: c terminus: a fixed tail appended
# protein stability index >= 4 gives Y, anything below gives N

Use these answered entries as a reference point.
>  <MUTANT_NAME>
A20M

>  <QUALITATIVE_LABEL>
N

$$$$
>  <MUTANT_NAME>
A9Y

>  <QUALITATIVE_LABEL>
N

$$$$
>  <MUTANT_NAME>
E18I

>  <QUALITATIVE_LABEL>
N

$$$$
>  <MUTANT_NAME>
S21W

>  <QUALITATIVE_LABEL>
N

$$$$
>  <MUTANT_NAME>
H3Q

>  <QUALITATIVE_LABEL>
N

$$$$
>  <MUTANT_NAME>
K12E

>  <QUALITATIVE_LABEL>
N

$$$$

input: Would you say K12M shows protein stability index at minimum 4?
output: N

input: Would you say K19E shows protein stability index at minimum 4?
output: Y

input: Would you say W22Q shows protein stability index at minimum 4?
output: Y

input: Would you say K19S shows protein stability index at minimum 4?
output: N

input: Would you say W22R shows protein stability index at minimum 4?
output: Y

input: Would you say E16H shows protein stability index at minimum 4?
output: N

Cited source: the supplement of paper PMC10567573
